target: recombinant human CYP2A6 (Homo sapiens, UniProt P11509); test: PCB biotransformation assay with recombinant human CYP2A6; type: in vitro ADME; details: EF = Area E1/(Area E1 + Area E2); 50 μM PCB; 60 min; 37 °C; 10 pmol/mL P450
Sequence (P11509 whole entry): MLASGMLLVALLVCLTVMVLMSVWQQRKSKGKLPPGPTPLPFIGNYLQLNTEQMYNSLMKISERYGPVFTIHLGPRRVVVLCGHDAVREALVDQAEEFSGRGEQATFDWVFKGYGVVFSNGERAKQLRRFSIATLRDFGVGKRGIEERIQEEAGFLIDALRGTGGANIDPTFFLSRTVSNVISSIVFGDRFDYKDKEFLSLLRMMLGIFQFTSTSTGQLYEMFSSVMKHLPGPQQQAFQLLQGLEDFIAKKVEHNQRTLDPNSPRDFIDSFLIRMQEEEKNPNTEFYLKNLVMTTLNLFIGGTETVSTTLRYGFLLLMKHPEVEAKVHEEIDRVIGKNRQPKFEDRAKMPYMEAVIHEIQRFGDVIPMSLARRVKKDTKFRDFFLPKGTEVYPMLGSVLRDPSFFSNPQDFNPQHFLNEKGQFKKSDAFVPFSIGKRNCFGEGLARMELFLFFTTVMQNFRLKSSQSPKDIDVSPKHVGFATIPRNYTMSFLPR
assayEndpoint: enantiomeric fraction (EF) of OH-PCB metabolite, CYP2A6
Answers are plain numbers.

# chemicalString, systemTested, reading
records = [
    ("Oc1cc(Cl)c(-c2ccc(Cl)cc2Cl)c(Cl)c1Cl", "recombinant human CYP2A6 (Homo sapiens, UniProt P11509)", 0.39),
    ("Oc1c(Cl)cc(Cl)c(-c2cc(Cl)ccc2Cl)c1Cl", "recombinant human CYP2A6 (Homo sapiens, UniProt P11509)", 0.99),
    ("Oc1cc(Cl)c(-c2c(Cl)ccc(Cl)c2Cl)c(Cl)c1Cl", "recombinant human CYP2A6 (Homo sapiens, UniProt P11509)", 0.10),
]

// switching to the query compound
Lab book: enantiomeric fraction (EF) of OH-PCB metabolite, CYP2A6 of `Oc1c(Cl)cc(Cl)c(-c2ccc(Cl)cc2Cl)c1Cl` noted as 0.92

----------
Could you please report measured enantiomeric fraction (EF) of OH-PCB metabolite, CYP2B6 for the items listed next?
biological target: recombinant human CYP2B6 (Homo sapiens, UniProt P20813); test: PCB biotransformation assay with recombinant human CYP2B6; type: in vitro ADME; details: EF = Area E1/(Area E1 + Area E2); 50 μM PCB; 60 min; 37 °C; 10 pmol/mL P450
Sequence (P20813 whole entry): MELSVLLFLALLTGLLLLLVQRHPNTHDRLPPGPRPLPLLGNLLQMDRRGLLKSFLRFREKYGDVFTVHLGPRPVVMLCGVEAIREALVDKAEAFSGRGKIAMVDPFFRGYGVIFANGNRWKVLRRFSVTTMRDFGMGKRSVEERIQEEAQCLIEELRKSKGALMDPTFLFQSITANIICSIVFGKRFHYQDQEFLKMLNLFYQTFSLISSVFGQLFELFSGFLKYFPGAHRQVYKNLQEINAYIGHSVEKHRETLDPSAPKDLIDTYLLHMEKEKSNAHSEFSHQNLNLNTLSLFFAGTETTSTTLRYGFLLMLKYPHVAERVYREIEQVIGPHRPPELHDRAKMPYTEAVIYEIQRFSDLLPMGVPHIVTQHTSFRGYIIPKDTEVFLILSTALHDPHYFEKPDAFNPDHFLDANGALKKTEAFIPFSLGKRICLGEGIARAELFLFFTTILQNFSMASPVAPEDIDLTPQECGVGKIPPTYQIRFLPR

Recorded results for 3 compounds are shown here.
# chemicalString, reading
measured = [
    ("Oc1cc(Cl)c(Cl)c(-c2ccc(Cl)cc2Cl)c1Cl", 0.49),
    ("Oc1cc(Cl)c(-c2ccc(Cl)cc2Cl)c(Cl)c1Cl", 0.60),
    ("Oc1cc(Cl)c(Cl)c(-c2ccc(Cl)c(Cl)c2Cl)c1Cl", 0.32),
]

Please find the next compound below.
Here `Oc1cc(Cl)c(Cl)c(-c2c(Cl)ccc(Cl)c2Cl)c1Cl` was tested on recombinant human CYP2B6 (Homo sapiens, UniProt P20813), and its enantiomeric fraction (EF) of OH-PCB metabolite, CYP2B6 came to 0.50
